experiment: compound binding in COS7 lysate, probe aLAP1, primary screen, cell lysate, small-molecule microarray (AID 1124); settings: probe aLAP1, fluorescence, higher = more signal;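 further: lysate comes from COS7 cells expressing LAP1 and is applied at 0.3 µg/mL; score merges spot fluorescence near 667 nm with signal-to-noise over triplicate slides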
value.kind: composite z-score
Just the number, please, no unit after it.

CCOC(=O)C[C@H]1[C@H](OC(=O)c2ccc(-c3ccccc3)cc2)[C@@H](NC(=O)CC(C)C)c2cc(OCCCO)ccc2N1C(=O)Cc1ccc(OC)cc1 | 0.39
CC(C)[C@@H](C(=O)O)n1cc(-c2ccccc2)nn1 | 0.547
CCCCC(O)C1C=CC2C(=O)N(C)C(=O)C2N1Nc1ccccc1 (centres undefined) | 0.182

IN: For the compound "COCCOC(=O)N1C(=O)[C@@]2(c3cc(C#CCCO)ccc31)[C@H](c1ccccc1OCCO)N1[C@H](c3ccccc3)[C@H](c3ccccc3)OC(=O)[C@H]1[C@@H]2C(=O)N1CCc2cc(OC)c(OC)cc2C1" , what composite z-score is on record?
OUT: 1.02

###

biological target: Torsin-1A (Homo sapiens) (UniProt O14656); test: small-molecule binders of mutant TOR1A in lysate, primary screen, cell lysate, small-molecule microarray, COS7 lysate, 635/667 nm fluorescence (AID 1150); settings: COS7 hTOR1A mutant lysate, 635 nm fluorescence, higher = more signal;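 further: score pools 667 nm emission and signal to noise measuring lysate protein binding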
Sequence (O14656 whole entry, looked up): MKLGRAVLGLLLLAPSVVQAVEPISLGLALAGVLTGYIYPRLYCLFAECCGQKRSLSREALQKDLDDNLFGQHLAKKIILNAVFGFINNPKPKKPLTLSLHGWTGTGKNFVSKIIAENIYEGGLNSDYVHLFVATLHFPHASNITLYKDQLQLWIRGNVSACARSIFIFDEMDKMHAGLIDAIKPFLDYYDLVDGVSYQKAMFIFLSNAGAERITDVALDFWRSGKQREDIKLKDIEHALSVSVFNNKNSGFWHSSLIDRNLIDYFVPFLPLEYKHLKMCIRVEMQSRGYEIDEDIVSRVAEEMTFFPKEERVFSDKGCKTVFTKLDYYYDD
The label depends only on composite z-score: label 1 if it is at least 0.2, label 0 if it is smaller.

CCOC(=O)C1=CC[C@@H](c2ccccc2)N(S(=O)(=O)c2ccc(C)cc2)[C@H]1C#N | label 0
CC(C)CNC(=O)[C@@H]1c2ccccc2C(=O)N(Cc2ccccc2)[C@H]1c1ccc(CO)cc1 | label 1
COC(=O)[C@@]1(Cc2ccc(F)cc2)[C@H]2c3cc(C(=O)N4CCCC4)n(CCO)c3C[C@H]2CN1C(=O)c1ccccc1 | label 0
COc1ccc(CCNC(=O)[C@@]2(Sc3ccc(C)cc3)CC(=O)N(Cc3cc(C(F)(F)F)cc(C(F)(F)F)c3)[C@@H]2c2ccc(CO)cc2)cc1 | label 0
COCCn1c(C(=O)N2CCCC2)cc2c1C[C@H]1CN(C(=O)c3ccccc3)[C@@](Cc3ccccc3)(C(=O)OC)[C@@H]21 | label 1

IN: Exam item: decide whether the reported composite z-score for "COc1ccc([Si](C)(C)[C@H]2[C@H](CCn3cc([C@H](O)c4ccccc4)nn3)O[C@@]3(C(=O)N(C)c4c(Br)cc(C)cc43)[C@@H]2C)cc1" is at least 0.2.
OUT: label 0

IN: Next entry: "C=C(C(=O)CC[C@@H](OC(C)=O)c1cccc(OCCO)c1)C(C)C"
OUT: label 1

IN: Next entry: N#Cc1ccc(C(O)C2C=CC3C(=O)NC(=O)C3N2Nc2ccccn2)cc1 (stereo not drawn)
OUT: label 1

###

molecular target: Dickkopf-related protein 1 (Homo sapiens); test: DKK1 binders on small-molecule microarrays, primary screen, biochemical, small-molecule microarray, 635 nm fluorescence scan (AID 1106); details: DKK1 binding, higher = more signal;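 further: score merges emission near 667 nm with signal to noise over three replicate slides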
value.kind: composite z-score
Just the number, please, no unit after it.

C=CCC(OC(C)=O)[C@@H]1[C@@H](N(Cc2cccc3ccccc23)C(=O)c2cccc3ccccc23)c2cc(OCCCO)ccc2N1C(=O)Cc1ccc2ccccc2c1 (stereo not given in full) | -0.394

IN: For the compound "C[N+](C)(C)CCCC[C@@H]1NC(=O)[C@H]2C[C@@H](C(=O)NCCCCCNC(=O)CS)[C@@H](c3ccc(O)cc3)N2C1=O" , what composite z-score is on record?
OUT: 0.312

IN: Next entry: CCCCC(O)C1C=CC2C(=O)NC(=O)C2N1Nc1ccccn1 (stereo not given)
OUT: 0.0816

IN: Next entry: "Cc1ccc(S[C@]2(C(=O)NCCCN(C)C)CC(=O)N(Cc3ccccc3Cl)[C@@H]2c2ccc(CO)cc2I)cc1"
OUT: -1.39

IN: Next entry: CCCCN1CC=CC23O[C@@H]4C=CCOC(=O)[C@@H]4[C@H]2C(=O)N(CCO)[C@@H]3C1=O (stereo not given in full)
OUT: -1.58

IN: Next entry: CN1C(=O)C2C=CC(C(O)c3ccc(-c4ccccc4)s3)N(Nc3ccccc3)C2C1=O (stereo not given)
OUT: -0.0947

IN: Next entry: "CC(C)(C)OC(=O)CC[C@]1(C(=O)N2CCOCC2)N=C(c2ccc(OCCCO)cc2)O[C@H]1c1ccccc1CN=[N+]=[N-]"
OUT: -0.0465

IN: Next entry: "CC(=O)NCCCC[C@@H]1NC(=O)[C@@H]2C[C@H](C(=O)NCCCCCC[N+](C)(C)C)[C@H](c3ccc(O)cc3)N2C1=O"
OUT: 1.12

IN: Next entry: "CN1C(=O)[C@]2(CCS(=O)(=O)c3ccccc3)N=C(c3ccc(OCCCO)cc3)O[C@@H]2c2ccccc21"
OUT: 0.367

IN: Next entry: CC(=O)c1ccc(C(O)C2C=CC3C(=O)N(C)C(=O)C3N2NC(=O)OC(C)(C)C)cc1 (stereo not given)
OUT: -0.698

IN: Next entry: "COc1ccc([Si](C)(C)[C@@H]2[C@@H](CCO)O[C@]3(C(=O)N(Cc4ccccc4)c4ccc(N5C(=O)c6ccccc6Oc6ccccc65)cc43)[C@H]2C)cc1"
OUT: -0.328

IN: Next entry: "CCC[C@@H]1C=C(C(=O)OCC)[C@H](c2ccccc2)N1S(=O)(=O)c1ccc(C)cc1"
OUT: 0.117

The reported numbers originate from PubChem BioAssay.
